Molecular target: Recombinant human KIF18A (1-467His-tagged) protein (Homo sapiens)
Construct: Recombinant human KIF18A (1-467His-tagged) protein; His
Sequence (Q8NI77 1-467): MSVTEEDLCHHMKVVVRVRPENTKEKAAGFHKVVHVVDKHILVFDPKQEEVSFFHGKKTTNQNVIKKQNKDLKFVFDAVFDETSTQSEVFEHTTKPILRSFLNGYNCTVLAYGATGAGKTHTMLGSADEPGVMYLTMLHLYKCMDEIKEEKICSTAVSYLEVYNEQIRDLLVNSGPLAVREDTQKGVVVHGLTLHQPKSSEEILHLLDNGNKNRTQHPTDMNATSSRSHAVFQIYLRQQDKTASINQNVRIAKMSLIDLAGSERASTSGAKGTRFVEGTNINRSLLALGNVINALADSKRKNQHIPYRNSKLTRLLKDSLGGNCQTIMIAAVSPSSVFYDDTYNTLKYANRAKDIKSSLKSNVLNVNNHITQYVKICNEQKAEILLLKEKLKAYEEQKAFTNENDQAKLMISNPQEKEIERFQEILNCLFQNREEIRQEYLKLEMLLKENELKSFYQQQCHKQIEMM
Sequence (P02550 whole entry partner): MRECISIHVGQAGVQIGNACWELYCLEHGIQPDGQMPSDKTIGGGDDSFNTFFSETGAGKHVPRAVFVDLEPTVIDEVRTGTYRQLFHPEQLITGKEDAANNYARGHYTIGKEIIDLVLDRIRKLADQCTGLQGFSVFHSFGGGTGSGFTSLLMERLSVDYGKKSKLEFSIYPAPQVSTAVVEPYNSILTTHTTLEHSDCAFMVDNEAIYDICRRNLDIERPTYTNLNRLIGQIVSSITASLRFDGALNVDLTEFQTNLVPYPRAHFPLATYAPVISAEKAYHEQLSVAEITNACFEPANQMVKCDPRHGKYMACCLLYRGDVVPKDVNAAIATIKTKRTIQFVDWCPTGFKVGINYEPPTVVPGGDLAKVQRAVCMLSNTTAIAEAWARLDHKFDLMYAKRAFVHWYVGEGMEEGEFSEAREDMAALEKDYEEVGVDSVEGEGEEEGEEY
Sequence (P02554 whole entry partner): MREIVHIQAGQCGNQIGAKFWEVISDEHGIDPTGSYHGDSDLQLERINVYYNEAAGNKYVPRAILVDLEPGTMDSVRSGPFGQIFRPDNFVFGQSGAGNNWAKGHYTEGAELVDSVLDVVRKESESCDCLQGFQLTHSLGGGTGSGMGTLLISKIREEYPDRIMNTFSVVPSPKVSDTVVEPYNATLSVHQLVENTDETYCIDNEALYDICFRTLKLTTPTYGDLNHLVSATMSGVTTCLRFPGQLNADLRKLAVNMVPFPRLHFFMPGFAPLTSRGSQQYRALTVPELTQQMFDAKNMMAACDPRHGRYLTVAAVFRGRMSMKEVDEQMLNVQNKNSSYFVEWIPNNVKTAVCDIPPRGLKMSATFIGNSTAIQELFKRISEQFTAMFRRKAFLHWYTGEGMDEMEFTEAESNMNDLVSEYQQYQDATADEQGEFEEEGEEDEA
Test: KIF18A enzyme assay (microtubule-stimulated ATPase activity, ADP-Glo)
Conditions: 30 nM KIF18A, 75 μM ATP, 30 μg/mL pig microtubules; read-out: Inhibitory activity against KIF18A IC50
Procedure: In Vitro Assay of the Compounds of the Present Invention for Inhibiting Enzymatic Activity of KIF18A KIF18A enzyme assay: The enzymatic activity of KIF18A after treatment with the compounds was measured by an assay of microtubule-stimulated ATPase activity. ADP generated from the ATPase reaction was measured in this assay. […] Luminescence was read using a microplate reader and compared with that of the DMSO group, and then the inhibition percentages and IC50 values of the compounds were calculated.
Parameter: IC50

Worked cases, answers included:
{"Smiles Input": "COc1ccc(NC(=O)c2ccc(NS(=O)(=O)CCO)cc2N2CCC3(CC2)CC3)nc1NC(C)(C)CO", "Measured Target": "Recombinant human KIF18A (1-467His-tagged) protein (Homo sapiens)", "IC50": "≤ 100 nM"}
{"Smiles Input": "O=C(Nc1ccc(NS(=O)(=O)CCO)cc1N1CCC2(CC1)CC2)c1ccc([N+](=O)[O-])c(N2CCC(F)(F)CC2)n1", "Measured Target": "Recombinant human KIF18A (1-467His-tagged) protein (Homo sapiens)", "IC50": "≤ 100 nM"}
{"Smiles Input": "C[C@@H]1CN(c2nc(C(=O)Nc3ccc(S(=O)(=O)N[C@@H](C)CO)cc3N3CCC4(CC3)CC4)ccc2[N+](=O)[O-])CCO1", "Measured Target": "Recombinant human KIF18A (1-467His-tagged) protein (Homo sapiens)", "IC50": "100 to 500 nM"}
{"Smiles Input": "COc1ccc(C(=O)Nc2ccc(S(=O)(=O)N[C@H](C)CO)cc2N2CCC3(CC2)CC3)nc1N1CCC(F)(F)CC1", "Measured Target": "Recombinant human KIF18A (1-467His-tagged) protein (Homo sapiens)", "IC50": "≤ 100 nM"}
{"Smiles Input": "CC(C)(CO)Nc1cc(C(=O)Nc2ccc(S(=O)(=O)NCCO)cc2N2CCC3(CC2)CC3)ccc1[N+](=O)[O-]", "Measured Target": "Recombinant human KIF18A (1-467His-tagged) protein (Homo sapiens)", "IC50": "100 to 500 nM"}

Kindly review the next compound as well.
Req: // map `O=C(Nc1ccc([N+](=O)[O-])c(OC2CCC2)c1)c1cnc(S(=O)(=O)NCCO)cc1N1CCC2(CC1)CC2` to recorded IC50 (system: Recombinant human KIF18A (1-467His-tagged) protein (Homo sapiens))
Resp: ≤ 100 nM

Origin of measurements: patent US20260158017A1
